Tested on: CAKI-1 renal
Test: NCI tumour cell line growth inhibition, 48 h
Recorded measurements of GI50, one per entry
property: GI50

molecule	measured.value
O=C1c2ccccc2-c2c1c1ccccc1c(=O)n2CCCN1CCOCC1	14 µM
O=C1OC(=O)C2C1C1(c3ccccc3)C(c3ccccc3)=C(c3ccccc3)C2(c2ccccc2)S1=O (stereo not given)	> 100 µM
OCCCCC#Cc1ccccc1C#Cc1ccccc1C(F)(F)F	5.37 µM
CCOC(=O)Oc1c(OC)cc(C(=O)O[C@@H]2C[C@@H]3CN4CCc5c([nH]c6cc(OC)ccc56)[C@H]4C[C@@H]3[C@H](C(=O)OC)[C@H]2OC)cc1OC	13.9 µM
O=C(C(Br)Br)C(Br)C(Br)c1ccccc1 (stereo not given)	1.78 µM
